- test_system: LFA-1 binding to ICAM-1 (JY cells) (Homo sapiens)
- Construct: endogenous in cells; host or cells: JY cells
- Sequence (P05362 28-532): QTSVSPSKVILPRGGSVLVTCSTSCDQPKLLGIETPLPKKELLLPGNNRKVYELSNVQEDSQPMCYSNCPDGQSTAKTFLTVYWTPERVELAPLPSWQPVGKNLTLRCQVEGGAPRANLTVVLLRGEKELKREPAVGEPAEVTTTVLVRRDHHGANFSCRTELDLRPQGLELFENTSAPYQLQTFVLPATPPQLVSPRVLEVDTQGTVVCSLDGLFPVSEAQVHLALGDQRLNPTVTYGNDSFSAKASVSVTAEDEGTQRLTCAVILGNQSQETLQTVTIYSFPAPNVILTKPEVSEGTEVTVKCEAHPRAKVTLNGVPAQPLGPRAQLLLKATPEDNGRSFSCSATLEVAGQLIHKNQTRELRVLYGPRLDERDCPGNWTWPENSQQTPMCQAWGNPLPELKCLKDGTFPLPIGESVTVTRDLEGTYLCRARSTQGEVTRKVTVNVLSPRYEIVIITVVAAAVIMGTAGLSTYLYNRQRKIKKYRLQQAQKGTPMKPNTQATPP
- assay_protocol: LFA-1:ICAM-1 dependent cell aggregation assay, slightly modified (360 minute incubations)
- Type: cell-based
- measurement_context: cell aggregation
- Procedure: JY cells were maintained in RPMI-1640 medium supplemented with 10% fetal bovine serum at 37° C. in an atmosphere containing 5% CO2 in air. […] Within each well, the number of aggregates and the total number of free (single) cells were counted by inverted phase microscopy. Percent aggregation, P, was then determined as follows: P=100(1−Ff/Fi), where Ff (Fi) is the final (initial) number of free cells. […]
pIC50: −log10 of the molar value. Bridge positions count the residues as written; N and C are the ends. Peptide text beside a SMILES is read from it.
measured_property: pIC50

Examples from the recorded data:
>>> observed_measurement("CSCC[C@@H]1NC(=O)[C@H](CCCNC(=N)N)NC(=O)[C@H](CC(C)C)NC(=O)[C@H](C(C)C)NC(=O)[C@@H](N)CSSC[C@@H](C(=O)O)NC(=O)[C@H](C)NC(=O)[C@H](CO)NC(=O)[C@H](CCCNC(=N)N)NC1=O [IP02-V2] (H-CVLRMRSAC-OH; disulfide 1-9; N-terminus and C-terminus assumed)")
"< 3.00"
>>> observed_measurement("CC[C@H](C)[C@@H]1NC(=O)[C@@H](N)CSSC[C@@H](C(=O)O)NC(=O)[C@H](C)NC(=O)[C@H](CO)NC(=O)[C@H](CCCNC(=N)N)NC(=O)[C@H](CCSC)NC(=O)[C@H](CCCNC(=N)N)NC(=O)[C@H](CC(C)C)NC1=O [IP02-12, CILRMRSAC] (H-CILRMRSAC-OH; disulfide 1-9; N-terminus and C-terminus assumed)")
"3.72 to 3.98"

Note: attention shifts to another entry.
q: Kindly state the measured pIC50 obtained for CSCC[C@@H]1NC(=O)[C@H](CCCNC(=N)N)NC(=O)[C@H](C(C)C)NC(=O)[C@H](CC(C)C)NC(=O)[C@@H](N)CSSC[C@@H](C(=O)O)NC(=O)[C@H](C)NC(=O)[C@H](CO)NC(=O)[C@H](CCCNC(=N)N)NC1=O [IP02-V3] (H-CLVRMRSAC-OH; disulfide 1-9; N-terminus and C-terminus assumed) with LFA-1 binding to ICAM-1 (JY cells) (Homo sapiens).
a: < 3.00
